assay-method-text: NCI Yeast Anticancer Drug Screen. Data for the cln2 rad14 strain (AID 165)
test-conditions: S. cerevisiae cln2 rad14 strain, at 50.0 µM
About 79,000 compounds went through this panel and 15% of them were active in at least one assay; those are over-represented in the sample as a whole. Calls of active or inactive are those of the source. No stated cut-off is given here; in the data, active means growth inhibition above about 70%; inactive means the rest. Where a SMILES comes first, the peptide text is derived from it. [ ]: non-standard residue; d: D form. The star is where a group is joined. ξ: configuration not given here. ξF = NC(Cc1ccccc1)C(=O)O; Cbz = O=C(OCc1ccccc1)*; Sar = CNCC(=O)O
Respond using exactly one of the listed classes: active, inactive

These recorded examples may help you get a feel for the data.
O=C(O)C(CCC1CCC=CCC1)C(=O)O | inactive
NC(=S)N/N=C(\CCC(=O)Nc1ccccc1[N+](=O)[O-])CC(=O)c1ccco1 | inactive
Cc1c(/C=N/N(C)C)oc2c1cc(O)c1ncccc12 | inactive
C=CCc1cc2c(cc1COC(C)=O)OCO2 | inactive
CCOC(=O)N1C(=O)c2ccccc2C1=O | inactive
N=c1nc(N)ss1 | inactive
CC1(OC(=O)Nc2ccccc2)CCCCC1 | inactive
CCO[C@@H]1C2C=CC(C2)[C@H]1[N+](=O)[O-] (stereo partly specified) | inactive

What outcome does the record of this test show for "CCC(=O)n1ncc2ccc([N+](=O)[O-])cc21" ?
inactive

Recorded test outcome, item NC1(c2ccccc2)C2CC3CC(C2)CC1C3 (stereo unspecified)
inactive

Tell me the recorded outcome of this test for "O=C(O)c1c[nH]c2cc(O)ccc2c1=O" .
inactive

Called result for "CSc1ccccc1N.[Cl][Cu][Cl]"
inactive

I'd appreciate the recorded outcome for "O=C(NCCCl)Oc1cccn(C(=O)NCCCl)c1=O" from this test.
inactive

Called result for "CCCCCCCCn1nnnc1N"
inactive

Which outcome was entered for the compound "COc1cccc(OC)c1/C=C1\N=C(c2ccccc2)OC1=O" in this test?
inactive

What did this assay record as the result for CN(CC(=O)NC(Cc1ccccc1)C(=O)O)C(=O)OCc1ccccc1 (stereo unspecified) (Cbz-[Sar]-[ξF]-OH) ?
inactive

// param item: CCC(C)OC(=S)S.[Ag] (stereo unspecified) ; yields the recorded call
inactive

Check the results log: what was the call for CC(C)NC(=O)OCCN=C1c2ccccc2C(Br)C(Br)c2ccccc21 (stereo unspecified) ?
inactive

What did this assay record as the result for "NCCSC(O)(C(F)(F)F)C(F)(F)F" ?
inactive

Could you kindly confirm the outcome this assay logged for "CCCCOCC(=O)NC1CCCCC1" ?
inactive

Which outcome was assigned to "C/C=C(/C)C(=O)O[C@@H]1c2c(C)coc2C(=O)[C@@]2(OC(C)=O)CCC[C@@](C)(O)[C@@]12C" in this test?
inactive
